target: NADPH oxidase 4 (Homo sapiens) (UniProt Q9NPH5); experiment: NOX4-dependent H2O2 signal modulators, primary screen, NOX inhibitor project, cell-based, HEK293-NOX4, tetracycline-induced, Amplex Red fluorescence (AID 1160); settings: 45 min, higher = more signal, called active from +8 up or from −8 down
Sequence (Q9NPH5 whole entry, looked up): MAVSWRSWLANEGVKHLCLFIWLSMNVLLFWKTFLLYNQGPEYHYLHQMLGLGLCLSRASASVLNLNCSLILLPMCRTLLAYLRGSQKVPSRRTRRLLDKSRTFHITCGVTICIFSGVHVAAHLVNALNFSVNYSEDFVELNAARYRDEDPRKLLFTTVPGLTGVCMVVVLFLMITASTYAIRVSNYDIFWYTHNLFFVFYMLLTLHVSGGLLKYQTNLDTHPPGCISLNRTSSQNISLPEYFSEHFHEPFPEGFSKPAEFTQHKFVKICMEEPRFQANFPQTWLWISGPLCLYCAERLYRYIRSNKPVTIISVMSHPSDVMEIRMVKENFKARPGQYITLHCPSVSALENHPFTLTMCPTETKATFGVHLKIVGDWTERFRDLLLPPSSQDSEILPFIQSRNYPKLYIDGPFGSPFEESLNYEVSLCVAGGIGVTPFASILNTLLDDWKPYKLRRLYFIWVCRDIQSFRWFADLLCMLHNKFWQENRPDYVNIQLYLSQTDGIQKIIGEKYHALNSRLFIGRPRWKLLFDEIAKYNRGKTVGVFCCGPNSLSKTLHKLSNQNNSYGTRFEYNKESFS
property.label: z-score
Numbers only.

Here's what some known entries look like.
compound=C=CCNC(=O)[C@H]1[C@@H]2C(=O)O[C@@H](c3ccccc3)[C@@H](c3ccccc3)N2[C@@H](c2ccc(O)cc2)[C@]12C(=O)N(C(=O)OCCOC)c1ccc(C#CCCO)cc12 property_label=z-score endpoint_value=0.261
compound=CCOC(=O)C1=CC[C@@H](c2ccccc2)N(S(=O)(=O)c2ccc(C)cc2)[C@H]1C(=O)OCC property_label=z-score endpoint_value=-1.45
compound=COC(=O)[C@@]1(Cc2ccc(OC)cc2)[C@H]2c3cc(C(=O)N4CCCC4)n(Cc4ccccn4)c3C[C@H]2CN1C(=O)c1ccccc1 property_label=z-score endpoint_value=-1
compound="COc1ccc(C(O)C2C=CC3C(=O)N(C)C(=O)C3N2Nc2ccccc2)cc1OCc1ccccc1 (stereo not given)" property_label=z-score endpoint_value=-4.36
compound=CCOC(=O)C[C@H]1[C@H](OC(=O)Cc2ccc3c(c2)OCO3)[C@@H](NC(=O)c2ccc(-c3ccccc3)cc2)c2cc(OCCCO)ccc2N1C(=O)c1ccccc1 property_label=z-score endpoint_value=0.674
compound="COc1cc2c(cc1O)C(C)N(Cc1cccc(OC(F)(F)F)c1)CC2 (stereo not given)" property_label=z-score endpoint_value=-2.46
compound="Cc1cc(C)c(C(O)C2C=CC3C(=O)N(c4ccccc4)C(=O)C3N2Nc2ccc(C#N)cc2)c(C)c1 (stereo not given)" property_label=z-score endpoint_value=-2.68
compound=C=C(C(=O)CC[C@H](OC(C)=O)c1ccc(OCCO)cc1)C(C)C property_label=z-score endpoint_value=-1.75
compound="CN1C=C(C(=O)OCCS(C)(=O)=O)C(C(=O)OCCS(C)(=O)=O)=CC(CCCO)=CC1C1CC1 (stereo not given)" property_label=z-score endpoint_value=-1.07

The record that follows has no z-score shown yet.
Could you share which z-score value was measured for COC(=O)[C@@]1(Cc2ccc(F)cc2)[C@H]2c3cc(C(=O)N4CCCC4)n(Cc4cccc5ccccc45)c3C[C@H]2CN1C(=O)c1ccccc1 ?
-0.021

Values compiled from PubChem BioAssay.
